Measured values drawn from the Human Domainome abundance scans (Beltran et al. 2025) for this set.

B1: Storkhead-box protein 2, residues 64 to 141; numbered along this chain, Q9P2F5 (parent)
chain: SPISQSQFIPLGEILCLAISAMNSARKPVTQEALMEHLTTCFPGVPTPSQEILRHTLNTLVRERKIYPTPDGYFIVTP

variants of: B1; experiment: abundance fitness (aPCA) (normalised: wild type 0, dead -1); higher = more abundant; growth selection in yeast, the domain comes from the species named; conditions: Homo sapiens
Lab note: anything with abundance fitness at or over -0.02 counts as label 1; the rest go in label 0.

Before answering, review these 2 worked examples.
variant_string: Q31C
classification: label 1
//
variant_string: R54D
classification: label 0

Has `Y67G` a recorded abundance fitness greater than or equal to -0.02?
label 0

Has `P28A` a recorded abundance fitness greater than or equal to -0.02?
label 1

Has `G44S` a recorded abundance fitness greater than or equal to -0.02?
label 1

Has `P48E` a recorded abundance fitness greater than or equal to -0.02?
label 0

Has `I52M` a recorded abundance fitness greater than or equal to -0.02?
label 1

Has `A33L` a recorded abundance fitness greater than or equal to -0.02?
label 0
